# reported GI50; entries follow
system: HCC 2998; experiment: NCI tumour cell line growth inhibition, 48 h
Calls of active or inactive are those of the source. No stated cut-off is given here; in the data, active = GI50 up to about 1.1 µM and inactive = higher.

Sample answers from the record:
| compound | GI50 |
| --- | --- |
| O=S(=O)(NC1CCCCC1)c1ccc2c(c1)OCCOCCOCCOCCO2 | > 100 µM (inactive) |
| N#CCCN(CCCN(C(=O)Nc1ccccc1)c1ccccc1)C(=O)Nc1ccccc1 | > 100 µM (inactive) |
| Oc1cc(-c2ccc(F)cc2)nc2ncccc12 | > 100 µM (inactive) |
| Cc1ccc([S+]([O-])c2ccccc2[N+](=O)[O-])cc1 (stereo unspecified) | 78.9 µM (inactive) |
| CSc1cc(N)ccc1/N=N/c1ccc(S(N)(=O)=O)cc1 | 53.6 µM (inactive) |
| COc1ccc(S(=O)(=O)N/N=C/C(=O)O)cc1 | 607 µM (inactive) |

Any idea what its GI50 is? The compound is CC(C)(CC1(C)NC(=O)NC1=O)OCc1ccccc1 (stereo unspecified)
> 100 µM (inactive)

Any idea what its GI50 is? The compound is COc1ccc(/C(Cl)=C(\CN(C)C)c2ccc(OC)c(OC)c2)cc1OC.[B]
> 100 µM (inactive)

Any idea what its GI50 is? The compound is CC(=O)Nc1ccc(/C=C/C(=O)c2sc(-c3cccnc3)nc2C)cc1
> 100 µM (inactive)

Any idea what its GI50 is? The compound is Cc1ccc(OCC2OC(C#N)C(Oc3ccc(C)cc3)C2Oc2ccc(C)cc2)cc1 (stereo unspecified)
> 100 µM (inactive)

Any idea what its GI50 is? The compound is O=C(/C=C\c1ccc([N+](=O)[O-])cc1)c1ccccc(=O)c1O
1.29 µM (inactive)
